procedure_text: VBL PK study in wild‐type and Mdr1a/b(−/−) mice, observed serum and tissue data
measurement_parameters: female, FVB (wild-type), mouse, brain, iv, 2 mg/kg
experimental_readout: AUC (µM·h)
Enter your answer as a number in µM·h; do not include the unit.

Input: // query AUC value for entry CC[C@]1(O)C[C@@H]2CN(CCc3c([nH]c4ccccc34)[C@@](C(=O)OC)(c3cc4c(cc3OC)N(C)[C@H]3[C@@](O)(C(=O)OC)[C@H](OC(C)=O)[C@]5(CC)C=CCN6CC[C@]43[C@@H]65)C2)C1
Output: 0.109
